Origin of the recorded values: patent US9226916B2

target: recombinant human NK3 receptor (Homo sapiens, UniProt P29371); construct: expressed in transfected cells; host or cells: HEK293 cells, transient expression; membranes; test: [3H]SR142801 competition binding assay
Sequence (P29371 whole entry): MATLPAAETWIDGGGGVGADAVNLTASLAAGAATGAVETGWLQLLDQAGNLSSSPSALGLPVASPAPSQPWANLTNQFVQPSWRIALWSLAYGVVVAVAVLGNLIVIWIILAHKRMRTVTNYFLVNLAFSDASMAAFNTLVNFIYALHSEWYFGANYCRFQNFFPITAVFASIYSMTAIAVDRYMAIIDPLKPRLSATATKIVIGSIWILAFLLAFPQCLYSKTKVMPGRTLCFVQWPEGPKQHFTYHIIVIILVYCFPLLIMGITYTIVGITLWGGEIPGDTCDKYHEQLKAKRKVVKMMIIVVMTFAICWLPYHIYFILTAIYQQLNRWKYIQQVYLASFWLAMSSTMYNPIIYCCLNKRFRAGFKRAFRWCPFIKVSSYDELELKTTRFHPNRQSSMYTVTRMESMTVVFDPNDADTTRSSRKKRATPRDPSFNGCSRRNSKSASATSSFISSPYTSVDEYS
Quantity: log10(Ki) (log10 of the value in nM)
Parameter value (number): base-10 log of Ki in nM.

See these solved cases before continuing.
Compound | Measured on | Value observed
CN(C(=O)Oc1ccc(F)cc1)[C@@H]1CN(C(=O)C2CCN(C(=O)C3CC3(C)C)CC2)C[C@H]1c1ccc(Cl)c(Cl)c1 (stereo partly drawn) | recombinant human NK3 receptor (Homo sapiens, UniProt P29371) | -0.22
CN(C(=O)Oc1ccc(F)cc1)[C@H]1CN(C(=O)C2CCN(C(=O)C3(C)CC3)CC2)C[C@@H]1c1ccc(Cl)cc1 (racemic) [Example 26] | recombinant human NK3 receptor (Homo sapiens, UniProt P29371) | 0.46
CN(C(=O)Oc1ccc(F)cc1)[C@@H]1CN(C(=O)C2CCCOC2)C[C@H]1c1ccc(Cl)cc1 (stereo partly drawn) | recombinant human NK3 receptor (Homo sapiens, UniProt P29371) | 1.87
CN(C(=O)Oc1ccc(F)cc1)[C@@H]1CN(C(=O)C2CCN(C3CCS(=O)(=O)C3)CC2)C[C@H]1c1ccc(Cl)cc1 (stereo partly drawn) | recombinant human NK3 receptor (Homo sapiens, UniProt P29371) | 0.11
CN(C(=O)O[C@H]1CC[C@H](C(F)(F)F)CC1)[C@@H]1CN(C(=O)C2CCOCC2)C[C@H]1c1ccc(Cl)c(Cl)c1 | recombinant human NK3 receptor (Homo sapiens, UniProt P29371) | 0.87

Memo: `CN(C(=O)Oc1ccc(F)cc1)[C@@H]1CN(C(=O)C2CCN(c3ccc(Cl)cn3)CC2)C[C@H]1c1ccc(Cl)c(Cl)c1` , reported log10(Ki): -0.70
